- System tested: human EP3 receptor (Homo sapiens, UniProt P43115)
- Sequence (P43115 whole entry): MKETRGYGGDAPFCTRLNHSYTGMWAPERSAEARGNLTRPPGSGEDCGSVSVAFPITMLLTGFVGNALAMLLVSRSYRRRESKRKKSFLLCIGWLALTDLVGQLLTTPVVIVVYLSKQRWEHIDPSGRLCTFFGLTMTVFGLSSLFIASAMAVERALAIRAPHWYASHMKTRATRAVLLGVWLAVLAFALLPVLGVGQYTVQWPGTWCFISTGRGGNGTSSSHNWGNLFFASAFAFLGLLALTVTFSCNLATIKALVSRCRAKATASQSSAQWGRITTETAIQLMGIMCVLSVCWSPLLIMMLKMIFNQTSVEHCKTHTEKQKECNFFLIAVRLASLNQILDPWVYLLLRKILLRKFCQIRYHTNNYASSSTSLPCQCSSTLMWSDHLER
- Assay text: Cellular in vitro assay for determining EP3 receptor activity (human EP3 cell line, sulprostone-stimulated calcium luminescence)
- Condition summary: CHO cells expressing human EP3 and mitochondrial Clytin; antagonist mode, sulprostone at EC50; read-out: EP3 CHO mtCLY ANTAG IC50
Provide the reported pIC50 of each item.
Answers are plain numbers, as −log10 of the molar value.

Illustrative cases are given below, each with its answer.
CCn1nccc1C(C)NC(=O)c1nn2cc(-c3cnc4cccc(C)c4c3)[nH]c(=O)c2c1C(C)C (stereo not shown) [Example 4-34]	8.96
O=C(N[C@H](CCO)c1ccc(F)cc1)c1cc2c(=O)[nH]c(-c3ccc4ccccc4c3)cn2n1 [Example 1-52]	8.16
O=C(NC1CCN(C2CC2)C1)c1nn2cc(-c3ccc4ccccc4c3)[nH]c(=O)c2c1C(F)(F)F (racemic) [6-499]	7.89

For the next question, use this molecule.
Form field: reported pIC50 of Cc1ccc(-c2cn3nc(C(=O)N[C@H](CCO)c4ccc(F)cc4)cc3c(=O)[nH]2)cc1C [Example 1-39]
9.58
